Tested on: Human immunodeficiency virus type 1 reverse transcriptase (Human immunodeficiency virus 1), Q72547 [Y181I]
Readings of ID50 for the listed compounds
Test readout: ID50 (µM)

In [3]: df
Out[3]:
                             chemical_string  modifier  reported_value
 0  COc1ccc(C(=O)CSc2nc(Cc3c(F)cccc3Cl)c(C(C)C)c(=O)[nH]2)cc1         >              40
 1  CCc1c(Cc2c(Cl)cccc2Cl)nc(SCC(=O)c2ccccc2)[nH]c1=O         =            0.33
 2  Cc1c(Cc2c(Cl)cccc2Cl)nc(SCC(=O)c2ccccc2)[nH]c1=O         =            1.38
 3  CC(C)c1c(Cc2c(F)cccc2Cl)nc(SCC(=O)c2ccc(F)cc2)[nH]c1=O         >              40
 4  CC(C)c1c(Cc2c(F)cccc2Cl)nc(SCC(=O)c2ccccc2)[nH]c1=O         >              40
 5  Cc1c(Cc2c(F)cccc2F)nc(SCC(=O)c2ccc(F)cc2)[nH]c1=O         =            1.71
 6  CCc1c(Cc2c(F)cccc2F)nc(SCC(=O)c2ccccc2)[nH]c1=O         =            0.82
 7  COc1ccc(C(=O)CSc2nc(Cc3c(F)cccc3Cl)c(C)c(=O)[nH]2)cc1         =             1.2
 8  Cc1c(Cc2c(F)cccc2Cl)nc(SCC(=O)c2ccccc2)[nH]c1=O         =             1.2
 9  COc1ccc(C(=O)CSc2nc(Cc3c(Cl)cccc3Cl)c(C)c(=O)[nH]2)cc1         =            0.46
10  CCc1c(Cc2c(F)cccc2Cl)nc(SCC(=O)c2ccc(OC)cc2)[nH]c1=O         >              40

====

Assay: Selectivity index, ratio of CC50 for human MT4 cells to EC50 for HIV1 NL4-3
Format: toxicity, cell-based
Conditions: read-out: Ratio CC50/EC50
Recorded measurements of selectivity ratio, one per entry
Test readout: selectivity ratio

>>> print(df.to_string())
                                    molecule  reported_value
 0  COc1ccc(C(=O)CSc2nc(Cc3c(F)cccc3Cl)c(C(C)C)c(=O)[nH]2)cc1         > 11000
 1  CCc1c(Cc2c(Cl)cccc2Cl)nc(SCC(=O)c2ccc(OC)cc2)[nH]c1=O            > 16
 2  CC(C)c1c(Cc2c(F)cccc2Cl)nc(SCC(=O)c2ccccc2)[nH]c1=O          > 2400
 3  CCc1c(Cc2c(F)cccc2F)nc(SCC(=O)c2ccc(OC)cc2)[nH]c1=O          > 6440
 4  O=C(CSc1nc(Cc2c(F)cccc2F)cc(=O)[nH]1)c1ccc(Cl)cc1             > 6
 5  O=c1cc(Cc2c(F)cccc2F)nc(SCCc2ccccc2)[nH]1           > 233
 6  COc1ccc(C(=O)CSc2nc(Cc3c(Cl)cccc3Cl)cc(=O)[nH]2)cc1             > 9
 7  Cc1c(Cc2c(Cl)cccc2Cl)nc(SCC(=O)c2ccccc2)[nH]c1=O          > 1580
 8  O=c1cc(Cc2c(F)cccc2F)nc(SCc2c(F)cccc2F)[nH]1            > 66
 9  Cc1ccnc2c1NC(=O)c1cccnc1N2C1CC1 [NEVIRAPINE]            > 54
10  Cc1c(Cc2c(F)cccc2F)nc(SCc2cccnc2)[nH]c1=O            > 12
11   O=c1cc(Cc2c(F)cccc2F)nc(Sc2ccccc2)[nH]1            > 54
12  CCC(C)c1c(Cc2c(F)cccc2Cl)nc(SCC(=O)c2ccc(F)cc2)[nH]c1=O (stereo unspecified)          > 3180
13  Cc1c(Cc2c(F)cccc2F)nc(SCc2ccc([N+](=O)[O-])cc2)[nH]c1=O            > 31
14  O=C(CSc1nc(Cc2c(F)cccc2Cl)cc(=O)[nH]1)c1ccc(F)cc1           > 210
15    CC(=O)CSc1nc(Cc2c(F)cccc2F)cc(=O)[nH]1            > 26
16  O=c1cc(Cc2c(F)cccc2F)nc(SCCCc2ccccc2)[nH]1             160
17  CCc1c(Cc2c(F)cccc2Cl)nc(SCC(=O)c2ccccc2)[nH]c1=O          > 1000
18  CCC(C)c1c(Cc2c(F)cccc2Cl)nc(SCC(=O)c2ccc(OC)cc2)[nH]c1=O (stereo unspecified)          > 6670
19  Cc1c(Cc2c(Cl)cccc2Cl)nc(SCC(=O)c2ccc(F)cc2)[nH]c1=O          > 1240
20  O=C(CSc1nc(Cc2c(F)cccc2F)cc(=O)[nH]1)c1ccc([N+](=O)[O-])cc1             > 3
21     Cc1c(Cc2c(F)cccc2F)nc(SC(C)C)[nH]c1=O         > 12800
22  CC(C)c1c(Cc2c(F)cccc2F)nc(SCC(=O)c2ccc(F)cc2)[nH]c1=O         > 11600
23  COc1ccc(CCSc2nc(Cc3c(Cl)cccc3Cl)c(C)c(=O)[nH]2)cc1        > 407000
24  CC(C)c1c(Cc2c(F)cccc2F)nc(SCC(=O)c2ccccc2)[nH]c1=O         > 30000
25  CCc1c(Cc2c(F)cccc2F)nc(SCC(=O)c2ccc(F)cc2)[nH]c1=O          > 3160
